// MIC collected for Pst. micros UPI 5464-1
Structures can show the parent of a compound that is named as a salt.
property-name: MIC

compound="O=C(O)c1cn(C2CC2)c2cc(N3CCC(CNCCO)C3)c(F)cc2c1=O (stereo not shown) [Exp. 2, hydrochloride]" property_name=MIC endpoint_result="3.13 µg/mL"
compound="O=C(O)c1cn(C2CC2)c2c(F)c(N3CCC(CNCCO)C3)c(F)cc2c1=O (stereo not shown)" property_name=MIC endpoint_result="0.39 µg/mL"
compound="O=C(O)c1cn(C2CC2)c2cc(N3CCNCC3)c(F)cc2c1=O [CPFX, Ciprofloxacin, reference compound]" property_name=MIC endpoint_result="0.2 µg/mL"
compound="O=C(O)c1cn(C2CC2)c2c(Cl)c(N3CCC(CNCCO)C3)c(F)cc2c1=O (stereo not shown)" property_name=MIC endpoint_result="0.1 µg/mL"

Origin of the recorded values: patent EP0221541A2
